Collected EC50 values appear next to each entry.
# assay.target: GLP-1 Receptor (Homo sapiens, UniProt P43220)
# Sequence (P43220 24-463, species assumed): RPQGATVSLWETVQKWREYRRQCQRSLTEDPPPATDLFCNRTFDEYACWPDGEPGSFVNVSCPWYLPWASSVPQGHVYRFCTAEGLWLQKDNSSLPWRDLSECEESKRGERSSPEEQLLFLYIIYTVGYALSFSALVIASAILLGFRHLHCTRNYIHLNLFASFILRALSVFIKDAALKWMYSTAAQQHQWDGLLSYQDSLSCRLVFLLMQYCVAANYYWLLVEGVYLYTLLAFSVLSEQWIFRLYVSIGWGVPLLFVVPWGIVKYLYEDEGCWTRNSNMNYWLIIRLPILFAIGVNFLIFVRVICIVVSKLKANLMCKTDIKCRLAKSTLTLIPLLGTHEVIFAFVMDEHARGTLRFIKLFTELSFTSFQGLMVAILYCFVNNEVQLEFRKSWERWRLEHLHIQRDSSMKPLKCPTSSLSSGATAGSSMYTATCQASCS
# test.name: GLP-1R agonist cAMP stimulation assay
# Type: cell-based

| compound | EC50 [nM] |
| --- | --- |
| Cc1nnc(-c2cc3nc(CN4CCC(Oc5nc(Cc6ccc(Cl)cc6F)ncc5F)CC4)n(C[C@@H]4CCO4)c3cn2)[nH]1 [Compound 170a] | 0.13 |
| Cc1cc(-c2ccc3c(c2)nc(CN2CCC(Oc4ccnc(Cc5ccc(Cl)cc5)n4)CC2)n3C[C@@H]2CCO2)[nH]n1 [Compound 131a] | 1.8 |
| N#Cc1nnc(-c2cc3nc(CN4CCC(Oc5nc(Cc6ccc(Cl)cc6F)ncc5F)CC4)n(C[C@@H]4CCO4)c3cn2)[nH]1 [Compound 193a] | 0.024 |
| Cc1ncc(-c2ccc3c(c2)nc(CN2CCC(Oc4ccnc(Cc5ccc(Cl)cc5)n4)CC2)n3C[C@@H]2CCO2)s1 [Compound 129a] | 7.6 |
| FC(F)(F)c1nnc(-c2ccc3c(c2)nc(CN2CCC(Oc4ccnc(Cc5ccc(Cl)cc5)n4)CC2)n3C[C@@H]2CCO2)[nH]1 [Compound 106a] | 0.098 |
| Cc1nnc(-c2cnc3c(c2)nc(CN2CCC(Oc4nc(Cc5ccc(Cl)cc5)ncc4F)CC2)n3C[C@@H]2CCO2)[nH]1 [Compound 162a] | 2.9 |
| FC(F)(F)c1nnc(-c2cc3nc(CN4CCC(Oc5ccnc(Cc6ccc(Cl)cc6)n5)CC4)n(C[C@@H]4CCO4)c3cn2)[nH]1 [Compound 150a] | 0.036 |
| FC(F)(F)c1nnc(-c2cnc3c(c2)nc(CN2CCC(Oc4cccc(Cc5ccc(Cl)cc5)n4)CC2)n3C[C@@H]2CCO2)[nH]1 [Compound 143a] | 0.22 |
| Cn1cc(-c2ccc3c(c2)nc(CN2CCC(Oc4ccnc(Cc5ccc(Cl)cc5)n4)CC2)n3C[C@@H]2CCO2)nn1 [Compound 130a] | 0.79 |
| FC(F)(F)c1nnc(-c2cc3nc(CN4CCC(Oc5cccc(Cc6ccc(Cl)cc6)n5)CC4)n(C[C@@H]4CCO4)c3cn2)[nH]1 [Compound 140a] | 1.7 |
| FC(F)(F)c1nnc(-c2ccc3c(c2)nc(CN2CCC(Oc4cccc(Cc5ccc(Cl)cc5)n4)CC2)n3C[C@@H]2CCO2)[nH]1 [Compound 136a] | 0.22 |
| Fc1cc(Cl)ccc1Cc1nccc(OC2CCN(Cc3nc4cc(-c5nnc[nH]5)ncc4n3C[C@@H]3CCO3)CC2)n1 [Compound 166a] | 1.8 |
| Cc1ccc(-c2ccc3c(c2)nc(CN2CCC(Oc4ccnc(Cc5ccc(Cl)cc5)n4)CC2)n3C[C@@H]2CCO2)nn1 [Compound 124a] | 0.59 |

---

# assay.target: GLP-1 Receptor (Homo sapiens, UniProt P43220)
# test.name: GLP-1R agonist cAMP stimulation assay
# Type: cell-based
# protocol.conditions: HEK293/GLP1R/CRE-LUC cells, cAMP dynamic 2 Kit (Cisbio), 30 min incubation at 37° C.; read-out: EC50
pEC50: −log10 of the molar value.
endpoint.name: pEC50

| compound | readout.number |
| --- | --- |
| CCc1ccc(C(=O)Nc2ccc3c(c2)nc(CN2CCC(Oc4ccnc(Cc5ccc(Cl)cc5F)n4)CC2)n3C[C@@H]2CCO2)cn1 [Compound 114a] | 8.80 |
| O=c1[nH]c(-c2ccc3c(c2)nc(CN2CCC(Oc4ccnc(Cc5ccc(Cl)cc5)n4)CC2)n3C[C@@H]2CCO2)no1 [Compound 108a] | 9.42 |
| O=c1[nH]c(-c2ccc3c(c2)nc(C[C@H]2CC[C@H](Oc4nc(Cc5ccc(Cl)cc5)ncc4F)CC2)n3C[C@@H]2CCO2)no1 [Compound 172a] | 8.74 |
| O=C(O)c1ccc2c(c1)nc(CN1CCC(Oc3nc(Cc4ccc(Cl)cc4F)ncc3F)CC1)n2C[C@@H]1CCO1 [Compound 165a] | 7.92 |
| Cc1ccc(C(=O)Nc2ccc3c(c2)nc(CN2CCC(Oc4ccnc(Cc5ccc(Cl)cc5F)n4)CC2)n3C[C@@H]2CCO2)cn1 [Compound 113a] | 9.74 |
| Fc1cc(Cl)ccc1Cc1cccc(OC2CCN(Cc3nc4cc(-c5nnn[nH]5)ccc4n3C[C@@H]3CCO3)CC2)n1 [Compound 110a] | 9.42 |
| Fc1cc(Cl)ccc1Cc1nccc(OC2CCN(Cc3nc4cc(-c5nnc(C(F)(F)F)[nH]5)cnc4n3C[C@@H]3CCO3)CC2)n1 [Compound 142a] | 10.32 |
| O=C(Nc1ccc2c(c1)nc(CN1CCC(Oc3ccnc(Cc4ccc(Cl)cc4F)n3)CC1)n2C[C@@H]1CCO1)c1ccc(-c2ccccc2)nc1 [Compound 119a] | 7.37 |
| O=C(O)c1ccc2c(c1)nc(CN1CCC(Oc3ccnc(Cc4ccc(Cl)cc4)n3)CC1)n2C[C@@H]1CCO1 [Compound 134a] | 10.28 |
| O=c1[nH]c(-c2cnc3c(c2)nc(CN2CCC(Oc4ccnc(Cc5ccc(Cl)cc5)n4)CC2)n3C[C@@H]2CCO2)no1 [Compound 144a] | 8.74 |
| N#CC1(Cn2c(CN3CCC(Oc4ccnc(Cc5ccc(Cl)cc5)n4)CC3)nc3cc(-c4nnc(C(F)(F)F)[nH]4)ccc32)CC1 [Compound 157] | 8.96 |
| N#CC1(Cn2c(CN3CCC(Oc4cccc(Cc5ccc(Cl)cc5F)n4)CC3)nc3cc(-c4nnc(C(F)(F)F)[nH]4)ncc32)CC1 [Compound 179] | 9.31 |
| N#CC1(Cn2c(CN3CCC(Oc4nc(Cc5ccc(Cl)cc5)ncc4F)CC3)nc3cc(-c4nnc(C(F)(F)F)[nH]4)ncc32)CC1 [Compound 178] | 9.70 |
| N#Cc1ccc(Cc2cccc(OC3CCN(Cc4nc5cc(-c6nnc(C(F)(F)F)[nH]6)ncc5n4C[C@@H]4CCO4)CC3)n2)c(F)c1 [Compound 190a] | 9.62 |
| O=C(Nc1ccc2c(c1)nc(CN1CCC(Oc3ccnc(Cc4ccc(Cl)cc4)n3)CC1)n2C[C@@H]1CCO1)c1cccnc1 [Compound 102a] | 9.51 |
| Fc1cc(Cc2cccc(OC3CCN(Cc4nc5cc(-c6nnc(C(F)(F)F)[nH]6)ncc5n4C[C@@H]4CCO4)CC3)n2)ccc1Cl [Compound 185a] | 9.43 |
| O=c1[nH]c(-c2cc3nc(CN4CCC(Oc5ccnc(Cc6ccc(Cl)cc6F)n5)CC4)n(C[C@@H]4CCO4)c3cn2)no1 [Compound 167a] | 9.64 |
| Fc1cc(Cl)ccc1Cc1cccc(OC2CCN(Cc3nc4cc(-c5nnc(C(F)(F)F)[nH]5)cnc4n3C[C@@H]3CCO3)CC2)n1 [Compound 141a] | 9.89 |
